Hello, the source for this data is patent US12398154B2, in case you need it.

test system: pERK in ASPC1 cells; experiment: Inhibition of KRas phosphorylation of ERK (Cisbio HTRF pERK assay); conditions: Homo sapiens, ASPC1, read-out: Inhibition (HTRF IC50) of KRas-mediated Phosphorylation of ERK, AsPC-1
observationType: IC50 (µM)
Note: unit µM is implicit; provide only the numeric part.

Solved cases (2 shown):
molecule	IC50, µM
O=C1NCC12CCCN(c1nc(OC[C@@]34CCCN3C[C@H](F)C4)nc3c(F)c(-c4cc(O)cc5ccc(F)c(Br)c45)ncc13)C2 (stereo partly drawn)	0.88
CCc1c(F)ccc2cc(O)cc(-c3ncc4c(N5CCC[C@@](C)(O)C5)nc(OC[C@]56CCCN5[C@H](COC(=O)N(C)C)CC6)nc4c3F)c12	0.013

Record CCc1c(F)ccc2cc(O)cc(-c3ncc4c(N5CCCC(O)CC5)nc(OC[C@@]56CCCN5C[C@H](F)C6)nc4c3F)c12 (stereo in doubt) , field IC50: 0.099

Record O=C1NCC12CCCN(c1nc(OC[C@@]34CCCN3C[C@H](F)C4)nc3c(F)c(-c4cc(O)cc5ccc(F)c(Cl)c45)ncc13)C2 (stereo partly drawn) , field IC50: 0.817

Record "CCc1c(F)ccc2cc(O)cc(-c3ncc4c(N5CCCc6nn(C(=O)NC(C)C)cc6C5)nc(OC[C@@]56CCCN5C[C@H](F)C6)nc4c3F)c12" , field IC50: 0.203

Record "C#Cc1c(F)ccc2cc(O)cc(-c3ncc4c(N5CCCn6nc(N)cc6C5)nc(OC[C@@]56CCCN5C[C@H](F)C6)nc4c3F)c12" , field IC50: 0.158

====

Reported log10 of IC50 by item:
molecular target: KRas G12V (Homo sapiens, UniProt P01116, G12V); experiment: biochemical;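 also: KRas binding measured by TR-FRET displacement at room temperature, IC50 fitted from percent of control values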
Sequence (P01116 1-169 isoform P01116-2 G12V): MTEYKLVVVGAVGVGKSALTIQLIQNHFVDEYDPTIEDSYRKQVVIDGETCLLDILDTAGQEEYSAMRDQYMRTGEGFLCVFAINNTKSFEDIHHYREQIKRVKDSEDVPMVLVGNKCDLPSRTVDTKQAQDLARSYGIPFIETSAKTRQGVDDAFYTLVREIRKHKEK
Recall that a logarithmic scale is used here: each number is log10 of IC50 in nM.

compound	assayTarget	log10 of IC50
CCc1c(F)ccc2cc(O)cc(-c3ncc4c(NCCC5CCC(=O)N5)nc(OC[C@@]56CCCN5C[C@H](F)C6)nc4c3F)c12 (stereo partly shown) [Example 377]	KRas G12V (Homo sapiens, UniProt P01116, G12V)	0.48
O=C1NCC2(CCCN(c3nc(OCC45CCCN4CCC5)nc4c(F)c(-c5cccc6cccc(CO)c56)ncc34)C2)N1 (stereo not shown) [Example 453]	KRas G12V (Homo sapiens, UniProt P01116, G12V)	2.76
OC1CC2CC(C1)N(c1nc(OCC34CCCN3CCC4)nc3c(F)c(-c4cccc5cccc(Cl)c45)ncc13)C2 (stereo not shown) [Example 106]	KRas G12V (Homo sapiens, UniProt P01116, G12V)	2.79
Fc1c(-c2cccc3cccc(F)c23)ncc2c(N3CCCCCCC3)nc(OCC34CCCN3CCC4)nc12 [Example 41]	KRas G12V (Homo sapiens, UniProt P01116, G12V)	3.53
C[C@H]1C[C@@H](O)CN(c2nc(OCC34CCCN3CCC4)nc3c(F)c(-c4cccc5cccc(F)c45)ncc23)C1 [Example 33]	KRas G12V (Homo sapiens, UniProt P01116, G12V)	3.82
CC1(O)CCCN(c2nc(OCC34CCCN3CCC4)nc3c(F)c(-c4cccc5cccc(F)c45)ncc23)C1 (stereo not shown) [Example 17]	KRas G12V (Homo sapiens, UniProt P01116, G12V)	3.17
OC1CCCN(c2nc(OCC34CCCN3CCC4)nc3c(F)c(-c4cccc5cccc(F)c45)ncc23)C1 (stereo not shown) [Example 23]	KRas G12V (Homo sapiens, UniProt P01116, G12V)	3.63
CCc1c(F)ccc2cc(O)cc(-c3ncc4c(N5CCCCC(O)C5)nc(OC[C@@]56CCCN5C[C@H](F)C6)nc4c3F)c12 (stereo partly shown) [Example 347]	KRas G12V (Homo sapiens, UniProt P01116, G12V)	0.48
OCC12CC(Nc3nc(OCC45CCCN4CCC5)nc4c(F)c(-c5cccc6cccc(F)c56)ncc34)(C1)C2 [Example 85]	KRas G12V (Homo sapiens, UniProt P01116, G12V)	3.57
Fc1c(-c2cccc3cccc(F)c23)ncc2c(N3CCCC4(CC(F)C4)C3)nc(OCC34CCCN3CCC4)nc12 (stereo not shown) [Example 234]	KRas G12V (Homo sapiens, UniProt P01116, G12V)	3.20

Record NS(=O)(=O)CC1CCCN(c2nc(OCC34CCCN3CCC4)nc3c(F)c(-c4cccc5cccc(C(F)(F)F)c45)ncc23)C1 (stereo not shown) [Example 465] , field log10 of IC50: 3.79

Record CCc1c(F)ccc2cc(O)cc(-c3ncc4c(N5CCOCC6(CCOCC6)C5)nc(OC[C@@]56CCCN5C[C@H](F)C6)nc4c3F)c12 [Example 500] , field log10 of IC50: 2.02

====

molecular target: KRas Q61H (Homo sapiens, UniProt P01116, Q61H); construct: Biotinylated KRas (corresponding to amino acids 1-169, produced at Accelegan Inc.); biotin (biotinylated); purchased Accelegan Inc; test: KRas binding assay (TR-FRET displacement);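 also: TR-FRET signal read after one hour at room temperature, IC50 derived by four-parameter fitting of percent-of-control values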
Sequence (P01116 1-169 isoform P01116-2 Q61H): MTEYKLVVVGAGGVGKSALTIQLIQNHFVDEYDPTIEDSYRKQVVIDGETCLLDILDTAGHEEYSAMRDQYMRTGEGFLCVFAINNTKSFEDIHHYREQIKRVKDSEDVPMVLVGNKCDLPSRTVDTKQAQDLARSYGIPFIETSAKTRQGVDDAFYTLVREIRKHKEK
Simple rule here: IC50 less than 3000 nM is true (1), otherwise false (0).

Worked examples follow.
compound	labelValue
CNS(=O)(=O)C1CCCN(c2nc(OCC34CCCN3CCC4)nc3c(F)c(-c4cccc5cccc(F)c45)ncc23)C1 (centres unmarked)	false (0)
O=C1NCC2(CCN(c3nc(OCC45CCCN4CCC5)nc4c(F)c(-c5cccc6cccc(F)c56)ncc34)CC2)N1	false (0)
Fc1c(-c2cccc3cccc(F)c23)ncc2c(N3CC=CCC3)nc(OCC34CCCN3CCC4)nc12	false (0)
CS(=O)(=O)C1CCCCCN(c2nc(OCC34CCCN3CCC4)nc3c(F)c(-c4cccc5cccc(F)c45)ncc23)C1 (centres unmarked)	false (0)

Request: # strict comparison: is reported IC50 < 3000 nM? input = O=C1NC(=O)C2CN(c3nc(OCC45CCCN4CCC5)nc4c(F)c(-c5cccc6cccc(F)c56)ncc34)CC12 (centres unmarked)
Response: true (1)

Request: # strict comparison: is reported IC50 < 3000 nM? input = "Fc1c(-c2cccc3cccc(Cl)c23)ncc2c(N3CC(n4ccnc4)C3)nc(OCC34CCCN3CCC4)nc12"
Response: true (1)

Request: # strict comparison: is reported IC50 < 3000 nM? input = OCC1CCCN(c2nc(OCC34CCCN3CCC4)nc3c(F)c(-c4cccc5cccc(F)c45)ncc23)C1 (centres unmarked)
Response: false (0)

Request: # strict comparison: is reported IC50 < 3000 nM? input = "Fc1c(-c2cccc3cccc(F)c23)ncc2c(NCCc3c[nH]nn3)nc(OCC34CCCN3CCC4)nc12"
Response: false (0)

Request: # strict comparison: is reported IC50 < 3000 nM? input = "CN(Cc1c[nH]c2ncccc12)c1nc(OCC23CCCN2CCC3)nc2c(F)c(-c3cccc4cccc(F)c34)ncc12"
Response: false (0)

Request: # strict comparison: is reported IC50 < 3000 nM? input = "O=C1CC2(CCN(c3nc(OCC45CCCN4CCC5)nc4c(F)c(-c5cccc6cccc(F)c56)ncc34)CC2)N1"
Response: true (1)

Request: # strict comparison: is reported IC50 < 3000 nM? input = "CCc1c(F)ccc2cc(O)cc(-c3ncc4c(N5CCC[C@@](C)(O)C5)nc(OCC56CCCN5CCC6)nc4c3F)c12"
Response: true (1)

Request: # strict comparison: is reported IC50 < 3000 nM? input = "CCc1cccc2cccc(-c3ncc4c(NCc5c[nH]c6ncccc56)nc(OCC56CCCN5CCC6)nc4c3F)c12"
Response: true (1)

Request: # strict comparison: is reported IC50 < 3000 nM? input = OC1CCCN(c2nc(OCC34CCCN3CCC4)nc3c(F)c(-c4cccc5cccc(F)c45)ncc23)CC1 (centres unmarked)
Response: false (0)

Request: # strict comparison: is reported IC50 < 3000 nM? input = "CCc1c(F)ccc2cc(O)cc(-c3ncc4c(N5CCCCC5)nc(OC[C@@]56CCCN5C[C@H](O)C6)nc4c3F)c12"
Response: true (1)

====

biological target: KRas G12R (Homo sapiens, UniProt P01116, G12R); experiment: biochemical;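 also: TR-FRET displacement assay of compound binding to KRas, read after one hour at room temperature, potency from a four-parameter fit of percent-of-control values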
Sequence (P01116 1-169 isoform P01116-2 G12R): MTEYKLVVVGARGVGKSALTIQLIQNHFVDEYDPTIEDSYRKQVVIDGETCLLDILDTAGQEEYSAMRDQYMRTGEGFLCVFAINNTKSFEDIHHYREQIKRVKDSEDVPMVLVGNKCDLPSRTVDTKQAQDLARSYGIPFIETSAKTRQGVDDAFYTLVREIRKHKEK
Reported pIC50 by item:
pIC50 is a log-scale quantity: -log10 of the concentration expressed in molar.

molecule	observedResult
C#Cc1c(F)ccc2cc(O)cc(-c3ncc4c(N5CCOCC(C)(O)C5)nc(OC[C@@]56CCCN5C[C@H](F)C6)nc4c3F)c12 (stereo partly drawn)	8.52
CCc1c(F)ccc2cc(O)cc(-c3ncc4c(N5CCOCC6(CCOCC6)C5)nc(OC[C@@]56CCCN5C[C@H](F)C6)nc4c3F)c12	6.99

Reading of pIC50 for Cc1cccc2cccc(-c3ncc4c(N5CCCC6(CC(=O)N6)C5)nc(OCC56CCCN5CCC6)nc4c3F)c12 (stereo not drawn) with KRas G12R (Homo sapiens, UniProt P01116, G12R): 6.46
